Test system: THRa homodimer (NR concentration 90 nM)
measurement_description: PBM binding z-score (relative to random genomic background probes); higher = stronger binding; sequences stand for … in GC…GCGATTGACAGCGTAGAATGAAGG
What PBM binding z-score was measured for each of the following?
Format: numeric value only, no unit, no commentary.

Fill in the blank: the reported PBM binding z-score of ATCTCTAGGTAAAGATAGTTCTGTGAATGCAAAT is ____.
0.132

# repeat for TCATATACGTAAATGCTAGGTGAAAGTCCGATCT
0.696

# repeat for AGTCAAAGTTCACTAGGTAACCTAAGATTCAGCT
0.759

# repeat for TCTTGTAGATCAACAGGAGGTTCAGAAAGATCGA
-1

# repeat for GCTAGCAGGCCATCTGGGTCACTCAATGACGGGC
0.249

# repeat for ATCGAAAGGTCGAAGGTTAGTATACCCACCCGAA
0.185

# repeat for CCGACTGAGGCAAGGTTACCATAACGCACAGCCA
0.413

# repeat for CCGACTGGGGCATAAAGTTACCATAAGCCAGCCC
-0.689

# repeat for CGAAGGAGGGCATGAGTTGATAGCAAATGCCGAT
-0.803

# repeat for CCTGCTAGGTCAATGTTCAGCTAAAGCAGCTCGC
0.628

# repeat for GCTATTAGTTGAAAGGGCAATCGAATGATTCTCG
-0.359

# repeat for TGACCAAGGTGAGCTGAGGTCGTTGATCCAACTC
1.8

# repeat for GCTATTAGTTGAAAGGGCAACCGTATGATTCTCG
-0.237

# repeat for CCGACTGGGGCACAAAGGTTACCATACCATCCGG
0.0239

# repeat for TCTCGTAGATCAAGCAGGTTAAGAAAGCCTGAGT
-0.615

# repeat for ATCTCTAGGTACAGTTCAGTGAAAGATCGATAGA
0.0799

# repeat for TCGAGTAGGTTAGGGGCATACAGAATGGCGTCGA
0.135

# repeat for CAAACTAGTTCACCGGAAGGTCAAAGTCCGCATG
1.72

# repeat for TCTATTAGTCGAAGGGCAACCGACGAGTCCGTTT
-0.0492

# repeat for TCGAGTAGGTTAGTCTGGGCATTCAGCCAACATA
-0.454

# repeat for CTAGAAAGGTCGTGCTCAGGTGAGTATACCAAAC
0.909

# repeat for CGAACTGGGTCATTGACAGGACAGTGAATAGTAA
0.357

# repeat for ACTAGCAGGCCAAGGGTCACTCTAGATTAGTCCG
-0.0207

# repeat for ATGTCTAGGTAAAGATAGTTCAGTGAATGCAAAT
-0.0958

# repeat for ATAGAAAGGTCGAGGTGAGTATAGAGAAAGGGAA
0.985

# repeat for TCATATAGATAAAAGGTGAAAGTCGGTGTGGTAA
0.0496

* * *

System: FXR:RXRa (NR concentration 270 nM, RXRa partner concentration 90 nM)
measurement_description: PBM binding z-score (relative to random genomic background probes); higher = stronger binding; sequences stand for … in GC…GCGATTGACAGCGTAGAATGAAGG
Decision: PBM binding z-score >= 3 yields Criterion met, all other cases yield Criterion not met.

Please indicate if the recorded PBM binding z-score for CCTTACGGGTCACTGACAGGTTATGGCATTTGGA meets or exceeds 3.
Criterion met

# repeat for ATTGAAAGGTCGACGAGGTGAGTATACACCGTTT
Criterion met

# repeat for TCATATAGGTAATACAGGTGAAGGTCGGCATCTA
Criterion not met

# repeat for CAAATTAGGTCAAGGTCAAAGTCGGTTTGTGCCA
Criterion met

# repeat for ACTAGTTGGTGAGCTGAGGTCACACACAATTCGG
Criterion not met

# repeat for TCTTCTAGGTCAGTTGGTCAGCTAACGAGCTGCC
Criterion not met
